# measuredTarget: Rat IR (rat, UniProt P15127 27-1383)
# Sequence (P15127 27-1383): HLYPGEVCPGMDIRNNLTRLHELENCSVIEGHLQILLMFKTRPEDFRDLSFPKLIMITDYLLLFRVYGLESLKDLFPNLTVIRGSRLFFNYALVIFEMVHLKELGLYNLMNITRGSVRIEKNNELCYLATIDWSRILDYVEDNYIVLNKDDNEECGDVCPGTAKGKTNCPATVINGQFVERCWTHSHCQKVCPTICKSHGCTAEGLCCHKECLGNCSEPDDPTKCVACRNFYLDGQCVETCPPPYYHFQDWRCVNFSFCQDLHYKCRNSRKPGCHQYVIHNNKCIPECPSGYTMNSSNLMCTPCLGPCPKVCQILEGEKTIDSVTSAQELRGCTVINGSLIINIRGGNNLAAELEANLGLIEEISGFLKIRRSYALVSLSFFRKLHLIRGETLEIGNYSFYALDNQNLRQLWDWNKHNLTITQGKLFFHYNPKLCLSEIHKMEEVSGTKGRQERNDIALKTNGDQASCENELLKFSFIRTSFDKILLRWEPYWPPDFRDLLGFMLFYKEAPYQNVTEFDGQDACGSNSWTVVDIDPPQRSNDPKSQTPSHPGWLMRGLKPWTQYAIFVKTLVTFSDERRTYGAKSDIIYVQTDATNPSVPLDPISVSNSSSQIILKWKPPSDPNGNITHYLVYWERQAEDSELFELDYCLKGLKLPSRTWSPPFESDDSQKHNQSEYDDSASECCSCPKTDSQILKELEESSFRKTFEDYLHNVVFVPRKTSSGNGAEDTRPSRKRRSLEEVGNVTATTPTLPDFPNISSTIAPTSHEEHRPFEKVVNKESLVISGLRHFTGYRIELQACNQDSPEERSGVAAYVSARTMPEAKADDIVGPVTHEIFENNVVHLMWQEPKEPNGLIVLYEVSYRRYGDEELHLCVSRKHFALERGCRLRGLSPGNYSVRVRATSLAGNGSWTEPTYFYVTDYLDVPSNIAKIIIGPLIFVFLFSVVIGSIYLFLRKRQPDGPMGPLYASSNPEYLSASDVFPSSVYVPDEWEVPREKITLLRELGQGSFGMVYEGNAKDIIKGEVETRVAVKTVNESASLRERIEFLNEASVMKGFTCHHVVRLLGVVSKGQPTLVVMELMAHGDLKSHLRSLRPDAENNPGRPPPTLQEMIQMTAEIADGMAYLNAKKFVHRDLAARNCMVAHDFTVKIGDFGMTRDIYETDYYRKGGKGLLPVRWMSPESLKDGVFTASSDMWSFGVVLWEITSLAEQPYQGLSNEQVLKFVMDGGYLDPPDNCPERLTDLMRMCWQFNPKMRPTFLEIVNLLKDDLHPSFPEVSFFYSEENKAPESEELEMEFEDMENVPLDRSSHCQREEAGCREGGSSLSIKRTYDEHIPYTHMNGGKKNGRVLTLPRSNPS
# assayName: cell-based or functional assay
experimentalReadout: Rat IR phosphorylation [EC50 nM] mean (nM)

binder="scl-Fc fusion protein INS017 (Fc fusion) SFVNQHLCGSHLVEALHLVCGERGFHYTPKTGSYPGGVGIVEQCCTSICSLSQLENYCGGEAEDLQVGQVELGGGPGAGSLQPEGSLQGGPSVFLFPPKPKDTLMISRTPEVTCVVVDVSHEDPEVKFNWYVDGVEVHNAKTKPREEQYNSTYRVVSVLTVLHQDWLNGKEYKCKVSNKALPAPIEKTISKAKGQPREPQVYTLPPSRDELTKNQVSLTCLVKGFYPSDIAVEWESNGQPENNYKTTPPVLDSDGSFFLYSKLTVDKSRWQQGNVFSCSVMHEALHNHYTQKSLSLSPGGGGGSAESKYGPPCPPCPA" experimentalreadout="Rat IR phosphorylation [EC50 nM] mean" endpointresult=53.6
binder="scl-Fc fusion protein INS012 (Fc fusion) FVNQHLCGSHLVEALHLVCGERGFHYTPKTEEYPGDVGIVEQCCTSICSLSQLEDYCGGEAEDLQVGQVELGGGPGAGSLQPEGSLQGGPSVFLFPPKPKDTLMISRTPEVTCVVVDVSHEDPEVKFNWYVDGVEVHNAKTKPREEQYNSTYRVVSVLTVLHQDWLNGKEYKCKVSNKALPAPIEKTISKAKGQPREPQVYTLPPSRDELTKNQVSLTCLVKGFYPSDIAVEWESNGQPENNYKTTPPVLDSDGSFFLYSKLTVDKSRWQQGNVFSCSVMHEALHNHYTQKSLSLSPGGGGGSAESKYGPPCPPCPA" experimentalreadout="Rat IR phosphorylation [EC50 nM] mean" endpointresult=124

Values compiled from patent US20260248892A1.
